Hello, the source for this data is patent US9493444B2, in case you need it.

Test system: Wnt pathway (TCF-dependent transcription in HEK293 luciferase reporter cell line with ER-DSH construct)
Assay: Cellular assay for Wnt pathway activity (luciferase reporter)
Format: cell-based
Conditions: Homo sapiens; Wnt pathway inhibition, HEK293 luciferase reporter cells (ER-DSH, TCF promoter), 24 hours incubation, estrogen-induced
metric: IC50

>>> print(df.to_string())
                                   compound  metric          observed
0  CC(=O)NCCSc1cncc(Oc2ccc(F)cc2)n1 [Compound 119]    IC50  1000 to 10000 nM
1  CC(=O)N(C)CCN(C)c1cncc(Oc2ccc(-c3cccnc3N)cc2)n1 [Compound 177]    IC50          < 200 nM
2  CC(=O)N(C)CCN(C)c1cncc(Oc2ccc(C(N)=O)cc2)n1 [Compound 143]    IC50    200 to 1000 nM
3  CC(=O)N(C)CCN(C)c1cncc(Oc2ccc(-c3ncnc4[nH]ccc34)cc2)n1 [Compound 191]    IC50          < 200 nM
4  CC(=O)N(C)CCNc1cncc(Oc2ccc(-c3ccc(N4CCOCC4)nc3)cc2)n1 [Compound 233]    IC50  1000 to 10000 nM

Provide IC50 for all items below, preserving their order.
1. COc1ccc(-c2ccc(Oc3cncc(NCCN(C)C(C)=O)n3)cc2)nc1 [Compound 240]
2. CC(=O)N(C)CCN(C)c1cncc(Oc2ccc(/C=C/c3ccccn3)cc2)n1 [Compound 145]
3. CC(=O)N(C)CCN(C)c1cncc(Oc2ccccc2F)n1 [Compound 51]

1: 200 to 1000 nM; 2: < 200 nM; 3: 200 to 1000 nM

Which measured IC50 value corresponds to CC(=O)N(C)CCN(C)c1cncc(Oc2ccc(C)cc2)n1 [Compound 52] ?
< 200 nM

---

Test system: Wnt pathway (TCF-dependent transcription in HEK293 luciferase reporter cell line with ER-DSH construct)
Assay: Cellular assay for Wnt pathway activity (luciferase reporter)
Type: cell-based
Conditions: Homo sapiens; Wnt pathway inhibition, HEK293 luciferase reporter cells (ER-DSH, TCF promoter), 24 hours incubation, estrogen-induced
So I've got a bunch of molecules here, and I need their IC50 values.

>>> df
                                   molecule    observed
0  CCC(=O)N(C)CCN(C)c1cncc(Oc2ccc(F)cc2)n1 [Compound 34]  1 to 10 µM

Provide IC50 for all items below, preserving their order.
1. CC(=O)N(C)CCN(C)c1cncc(Oc2ccc(Br)c(C)c2)n1 [Compound 111]
2. CCOC(=O)c1ncoc1-c1ccc(Oc2cncc(N(C)CCN(C)C(C)=O)n2)cc1 [Compound 187]
3. CC(=O)N(C)CCN(C)c1cncc(Oc2cnn(-c3cccc(C(F)(F)F)c3)c2)n1 [Compound 222]
4. CC(=O)N(C)CCNc1cncc(Cc2ccccc2)n1 [Compound 319]
5. CC(=O)N(C)CCN(C)c1cncc(Oc2ccc(-c3cnc4ccccc4c3)cc2)n1 [Compound 207]
6. Nc1cnc(-c2ccc(Oc3cncc(CCCN4CCCCC4=O)n3)cc2)cn1 [Compound 263]

1. 0.2 to 1 µM
2. 0.2 to 1 µM
3. 1 to 10 µM
4. 0.2 to 1 µM
5. 0.2 to 1 µM
6. < 0.2 µM

Provide IC50 for all items below, preserving their order.
1. CC(=O)N(C)CCSc1cncc(Oc2ccc(-c3ccc(C)cn3)cc2)n1 [Compound 153]
2. CC(=O)N(C)CCN(C)c1cncc(Oc2ccc(C3CCC(C)CO3)cc2)n1 (stereo not drawn) [Compound 179]

["< 0.2 µM", "< 0.2 µM"]

---

System: Wnt pathway (TCF-dependent transcription in HEK293 luciferase reporter cell line with ER-DSH construct)
Test: Cellular assay for Wnt pathway activity (luciferase reporter)
Assay type: cell-based
Settings: Homo sapiens; Wnt pathway inhibition, HEK293 luciferase reporter cells (ER-DSH, TCF promoter), 24 hours incubation, estrogen-induced
metric: IC50

>>> print(df.to_string())
                                  compound  metric  observed
0  CCN(CCN(C)c1cncc(Oc2ccc(F)cc2)n1)C(C)=O    IC50  < 0.2 µM

Provide IC50 for all items below, preserving their order.
1. CC(=O)N(C)CCN(C)c1cncc(Oc2ccc3c(c2)CCC3)n1
2. CC(=O)N(C)CCCc1cncc(Oc2ccc(-c3ccc(C)cn3)cc2)c1
3. CC(=O)N(C)CCCc1cncc(Oc2ccc(-c3cnc(N)cn3)cc2)c1
4. CC(=O)N(C)CCN(C)c1cncc(Oc2ccc(-c3cc(Br)cnc3N)cc2)n1
5. CC(=O)N(C)CCNc1cncc(Oc2ccc(F)cc2)n1
6. CC(=O)N(C)CCN(C)c1cncc(Oc2ccc(-c3ccc(N4CCOCC4)nc3)cc2)n1
7. CC(=O)N(C)CCN(C)c1cncc(Oc2ccc(Cl)c(C(F)(F)F)c2)n1

1. < 0.2 µM
2. 1 to 10 µM
3. 0.2 to 1 µM
4. 0.2 to 1 µM
5. 1 to 10 µM
6. < 0.2 µM
7. 1 to 10 µM

Provide IC50 for all items below, preserving their order.
1. COc1ccc(Oc2cncc(N(C)CCCN(C)C(=O)C(F)(F)F)n2)cc1
2. CC(=O)N(C)CCN(C)c1cncc(Oc2ccc(C3CCCCC3)cc2)n1
3. CC(=O)N(C)CCN(C)c1cncc(Oc2ccc(-c3ccc(N4CCN(C(=O)CCCCCNC(=O)CCCCC5SCC6NC(=O)NC65)CC4)nc3)cc2)n1 (stereo not drawn)

1 to 10 µM
1 to 10 µM
< 0.2 µM

---

Tested on: Wnt pathway (TCF-dependent transcription in HEK293 luciferase reporter cell line with ER-DSH construct)
Assay: Cellular assay for Wnt pathway activity (luciferase reporter)
Format: cell-based
Conditions: Homo sapiens; Wnt pathway inhibition, HEK293 luciferase reporter cells (ER-DSH, TCF promoter), 24 hours incubation, estrogen-induced
pIC50: −log10 of the molar value.
metric: pIC50

Provide pIC50 for all items below, preserving their order.
1. COC(=O)N(C)CCN(C)c1cncc(Oc2ccc(OC)cc2)n1
2. CCN(CCN(C)c1cncc(Oc2cccc(F)c2)n1)C(C)=O
3. C=CC(=O)N(C)CCN(C)c1cncc(Oc2ccc(F)cc2)n1
4. CC(=O)N(C)CCN(C)c1cncc(Oc2ccc(S(C)(=O)=O)cc2)n1

5.00 to 6.00
6.00 to 6.70
5.00 to 6.00
6.00 to 6.70

---

So I've got a bunch of molecules here, and I need their IC50 values.
System: Wnt pathway (TCF-dependent transcription in HEK293 luciferase reporter cell line with ER-DSH construct)
Test: Cellular assay for Wnt pathway activity (luciferase reporter)
Format: cell-based
Conditions: Homo sapiens; Wnt pathway inhibition, HEK293 luciferase reporter cells (ER-DSH, TCF promoter), 24 hours incubation, estrogen-induced
Method: 1. Cellular Assay for Wnt Pathway Activity Compounds were tested for their Wnt pathway inhibitory activities using a luciferase reporter cell based assay. […] Compounds, in concentrations from 30 μM down to 1 nM, were incubated for 24 hours on the cells, which were induced for TCF-dependent transcription by the addition of estrogen (10). Luciferase activities were determined using the ONE GLO Luciferase Assay System (Promega) and the ENVISION microplate reader (Perkin Elmer). […]

>>> print(df.to_string())
                                   molecule  metric          observed
0  CC(=O)N(C)CCN(C)c1cncc(Oc2ccc(-c3ccc(N)nc3)c(F)c2F)n1    IC50          < 200 nM
1  CC(=O)N(C)CCN(C)c1cncc(Oc2ccc(-c3cc4cc[nH]c4cn3)cc2)n1    IC50          < 200 nM
2  COc1ccc(Oc2cncc(N(C)CCN(C)C(=O)CC(C)(C)C)n2)cc1    IC50  1000 to 10000 nM
3  COc1ccc(Oc2cncc(N(C)CCN(C)S(=O)(=O)c3ccc(F)cc3F)n2)cc1    IC50  1000 to 10000 nM
4  O=C1CCCCN1CCCc1cncc(Oc2ccc(-c3ccc(N4CCOCC4)nc3)cc2)n1    IC50          < 200 nM
5  N#Cc1cnccc1-c1ccc(Oc2cncc(NCCN3CCCCC3=O)n2)cc1    IC50    200 to 1000 nM
6  CC(=O)c1ccc(Oc2cncc(N(C)CCN(C)C(C)=O)n2)cc1    IC50    200 to 1000 nM
7  CC(=O)N(C)CCN(C)c1cncc(Oc2ccc(-c3cccc(C(N)=O)n3)cc2)n1    IC50          < 200 nM
8  CC(=O)N(C)CCNc1cncc(Oc2ccc(-c3ccnc(C#N)c3)cc2)n1    IC50  1000 to 10000 nM
9  CC(=O)N(C)CCN(C)c1cncc(Oc2ccc(-c3ccc(CCNC(=O)CCCCCNC(=O)CCCCC4SCC5NC(=O)NC54)cc3)cc2)n1 (centres unmarked)    IC50          < 200 nM

Provide IC50 for all items below, preserving their order.
1. CC(=O)N(C)CCNc1cncc(Oc2ccc(-c3cccc(N4CCN(C)CC4)n3)cc2)n1
2. COc1ccc(Oc2cncc(N(C)CCCN(C)C(C)=O)n2)cc1
3. COc1ccc(Oc2cncc(N(C)CCN(C)C(C)=O)n2)cc1OC
4. CCN(CCNc1cncc(Oc2cccc(F)c2)n1)C(C)=O
5. COc1ccc(Oc2cncc(N(C)CCN(C)S(=O)(=O)c3cc(F)ccc3F)n2)cc1

["< 200 nM", "1000 to 10000 nM", "1000 to 10000 nM", "1000 to 10000 nM", "1000 to 10000 nM"]

Provide IC50 for all items below, preserving their order.
1. CC(=O)N(CCSc1cncc(Oc2ccc(-c3ccc(C)cn3)cc2)n1)C(C)C
2. COc1ccc(Oc2cncc(NCCN(C)C(C)=O)n2)cc1

["< 200 nM", "1000 to 10000 nM"]
